# Tested on: Plasmodium falciparum
# measurement.protocol: GSK_TCMDC: Inhibition of Plasmodium falciparum 3D7 in whole erythrocytes, using parasite LDH activity as an index of growth.
# Assay type: functional, organism-based
# condition.details: Plasmodium falciparum, 3D7
Would you mind telling me the reported XC50 of each entry?
One number for each entry, in µM.

Sample answers from the record:
O=C(CCC(=O)c1ccc2c3c(cccc13)CC2)NC1CCC(CN2CCC(c3c[nH]c4ccccc34)CC2)CC1 (stereo not drawn) | 0.918
N#Cc1cccc(NC(=O)C2=C(CCc3ccc4c(c3)OCO4)NC(=O)NC2c2cccc(C#N)c2)c1 (stereo not drawn) | 0.834
O=C(/C=C/c1ccc(Cl)c(Cl)c1)NC1CCC(CN2CCC(c3c[nH]c4ccccc34)C(O)C2)CC1 (stereo not drawn) | 0.719
CC(=NNC(N)=O)C1=C(O)C(c2ccccc2)N(C2CCCCC2)C1=O (stereo not drawn) | 0.033

Can you give me XC50 for all of these, one by one?
1. O=C(c1cccc(Br)c1)N1CCN(c2ccc([N+](=O)[O-])c(NC3CC3)c2)CC1
2. CC(C)(CNC(=O)[C@@H]1CCCCN1)c1nc(-c2ccc(Cl)c(O)c2)c(-c2ccncc2)[nH]1
3. Cc1noc(-c2ccccc2)c1NC(=O)NC1CCN(CCCCCNC(=O)/C=C/c2ccc(Cl)c(Cl)c2)CC1

Output:
1: 0.936; 2: 0.841; 3: 0.985

Please give XC50 for each item listed below.
1. O=C(NC1CCCCCC1)C1CCCN(C(=O)c2ccc(O)c(-c3ccc(Cl)c(Cl)c3)c2)C1 (stereo not drawn)
2. O=C(Cn1c(CCc2cccc(F)c2F)nc(=O)c2ccccc21)N(CCCN1CCCCC1)Cc1ccc(-c2ccc(C(F)(F)F)cc2)cc1
3. CN(C(=O)c1ccccc1)C1c2cc(C#N)ccc2OC(C)(C)C1O (stereo not drawn)
4. COc1ccccc1N=C1SC(=Cc2cn(CC(=O)N3CCCc4ccccc43)c3ccccc23)C(=O)N1C1CCCCC1
5. CCNc1cc(C)nc(Nc2ccc(C)cc2)n1

Output:
[0.763, 0.762, 0.654, 0.0289, 0.73]

Give one value of XC50 per listed compound.
1. CCN(CC)CCN(Cc1ccc(-c2ccc(Cl)cc2)cc1)C(=O)Cn1c(CCc2cccc(F)c2F)nc(=O)c2ccccc21
2. NS(=O)(=O)c1ccc(Nc2nccc(-c3c(-c4cccc(NC(=O)c5c(F)cccc5F)c4)nn4ccccc34)n2)cc1
3. COc1ccc(CC(=O)NC(CCN2CCC3(CC2)CN(S(C)(=O)=O)c2ccccc23)c2ccc(Cl)c(Cl)c2)cc1OC (stereo not drawn)
4. CN1CCN(CCCN(Cc2csc(-c3ccc(CNCc4ccccc4)cc3)n2)C(=O)Nc2cccc(Cl)c2)CC1
5. COc1ccc(C2CC(=O)C3=C(C2)NC(C)=C(C(=O)OC(C)C)C3c2ccc(O)cc2)cc1OC (stereo not drawn)

Output:
[0.769, 0.762, 0.998, 0.789, 0.278]

Input: Enter reported XC50 observed with Plasmodium falciparum for CC(C)c1ccc(-c2nc3cc(Cl)cnc3[nH]2)cc1
Output: 0.857

---

# Test system: Plasmodium falciparum
# measurement.protocol: GSK_TCMDC: Inhibition of Plasmodium falciparum 3D7 in whole erythrocytes, using parasite LDH activity as an index of growth.
# Format: functional, organism-based
# condition.details: Plasmodium falciparum, 3D7
assay.endpoint: XC50 (nM)
Numbers only, in nM.

Worked cases, XC50 given:
N#Cc1ccc(-c2cnc3ccc(NCc4ccc(S(N)(=O)=O)cc4)nn23)cc1 | 785
CC(C)CCn1c(Sc2ccc(C#N)c([N+](=O)[O-])c2)nnc1-c1ccc(Cl)cc1 | 875
Clc1ccc(-c2nc(-c3ccncc3)c[nH]2)cc1Cl | 1060
CN(C(=O)/C=C/c1c(Cl)cccc1Cl)C1CCN(CCCCCNC(=O)/C=C/c2ccc(Cl)c(Cl)c2)CC1 | 360

For the next question, use this compound.
Input: Which XC50 is reported for this compound? Cc1cccc2nc(-c3cccc(-c4cccc(CNCc5cccc(N)c5)c4)c3)[nH]c12
Output: 543

The reported numbers originate from ChEMBL document CHEMBL1157539.
